The compounds below have reported AC50 for Histamine H3 receptor (Homo sapiens).

{"COMPOUND": "Cn1c(=O)c2c(ncn2CC(O)CO)n(C)c1=O (stereo not given)", "EXPERIMENTAL_SYSTEM": "Histamine H3 receptor (Homo sapiens)", "AC50": "> 30 µM"}
{"COMPOUND": "CC(C)COc1ccc(CNC(=O)N(Cc2ccc(F)cc2)C2CCN(C)CC2)cc1", "EXPERIMENTAL_SYSTEM": "Histamine H3 receptor (Homo sapiens)", "AC50": "28.7 µM"}
{"COMPOUND": "C#Cc1cccc(Nc2ncnc3cc(OCCOC)c(OCCOC)cc23)c1", "EXPERIMENTAL_SYSTEM": "Histamine H3 receptor (Homo sapiens)", "AC50": "> 30 µM"}
{"COMPOUND": "CN(C)C(=O)c1nc(CNC(=O)CN)n(-c2ccc(Cl)cc2C(=O)c2ccccc2Cl)n1", "EXPERIMENTAL_SYSTEM": "Histamine H3 receptor (Homo sapiens)", "AC50": "> 30 µM"}
{"COMPOUND": "CCn1cc(C(=O)O)c(=O)c2cc(F)c(N3CCNCC3)nc21", "EXPERIMENTAL_SYSTEM": "Histamine H3 receptor (Homo sapiens)", "AC50": "> 30 µM"}

====

- EXPERIMENTAL_SYSTEM: 5-hydroxytryptamine receptor 2A (Homo sapiens, UniProt P28223); note: assay procedure not described here
- Sequence (P28223 whole entry): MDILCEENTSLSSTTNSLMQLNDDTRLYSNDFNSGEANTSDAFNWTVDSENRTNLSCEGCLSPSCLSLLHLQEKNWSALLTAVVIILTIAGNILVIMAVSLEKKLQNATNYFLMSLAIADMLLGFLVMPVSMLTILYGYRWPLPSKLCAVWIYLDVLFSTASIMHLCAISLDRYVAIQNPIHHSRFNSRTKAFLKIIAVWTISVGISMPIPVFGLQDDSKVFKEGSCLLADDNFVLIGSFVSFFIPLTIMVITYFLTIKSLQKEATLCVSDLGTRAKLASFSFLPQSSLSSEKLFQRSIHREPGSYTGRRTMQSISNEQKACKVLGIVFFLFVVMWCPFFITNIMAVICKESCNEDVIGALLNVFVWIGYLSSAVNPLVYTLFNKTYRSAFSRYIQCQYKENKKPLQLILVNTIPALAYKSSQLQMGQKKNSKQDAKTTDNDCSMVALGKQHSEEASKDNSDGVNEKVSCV
- Format: functional, cell-based

{"COMPOUND": "CN1CCN(CCCN2c3ccccc3Sc3ccc(S(=O)(=O)N(C)C)cc32)CC1", "AC50": "5.8 µM"}
{"COMPOUND": "N#C[C@@H]1CCCN1C(=O)CNC12CC3CC(CC(O)(C3)C1)C2", "AC50": "> 30 µM"}
{"COMPOUND": "CC(C)OC(=O)C(C(=O)OC(C)C)=C1SC=CS1 [MALOTILATE]", "AC50": "> 30 µM"}
{"COMPOUND": "CC(=O)OCC(=O)[C@@]1(O)CC[C@H]2[C@@H]3CCC4=CC(=O)CC[C@]4(C)C3=CC[C@@]21C [ANECORTAVE ACETATE]", "AC50": "> 10 µM"}
{"COMPOUND": "CN(c1nccc(=O)[nH]1)C1CCN(c2nc3ccccc3n2Cc2ccc(F)cc2)CC1", "AC50": "> 30 µM"}
{"COMPOUND": "CCCCC[C@H](O)/C=C/[C@H]1[C@H](O)CC(=O)[C@@H]1C/C=C\\CCCC(=O)O", "AC50": "> 30 µM"}
{"COMPOUND": "Oc1c(I)cc(Cl)c2cccnc12", "AC50": "> 30 µM"}
{"COMPOUND": "COc1cc2c(Nc3ccc(Br)cc3F)ncnc2cc1OCC1CCN(C)CC1", "AC50": "14 µM"}

====

The compounds below have reported AC50 for Vasopressin V1a receptor (Homo sapiens).
PARAMETER: AC50

{"COMPOUND_STRUCTURE": "CC(=O)O[C@H]1C[C@@H]2CC[C@@H]3[C@H](CC[C@@]4(C)[C@H]3C[C@H]([N+]3(C)CCCCC3)[C@@H]4OC(C)=O)[C@@]2(C)C[C@@H]1[N+]1(C)CCCCC1", "EXPERIMENTAL_SYSTEM": "Vasopressin V1a receptor (Homo sapiens)", "PARAMETER": "AC50", "OBSERVED": "> 10 µM"}
{"COMPOUND_STRUCTURE": "Cc1ccc2c(-c3ccccc3)nc(=O)n(C(C)C)c2c1", "EXPERIMENTAL_SYSTEM": "Vasopressin V1a receptor (Homo sapiens)", "PARAMETER": "AC50", "OBSERVED": "> 30 µM"}
{"COMPOUND_STRUCTURE": "O=C(CCCN1CCC2(CC1)C(=O)NCN2c1ccccc1)c1ccc(F)cc1", "EXPERIMENTAL_SYSTEM": "Vasopressin V1a receptor (Homo sapiens)", "PARAMETER": "AC50", "OBSERVED": "> 30 µM"}
{"COMPOUND_STRUCTURE": "CCn1cc(C(=O)O)c(=O)c2cc(F)c(N3CCNCC3)nc21", "EXPERIMENTAL_SYSTEM": "Vasopressin V1a receptor (Homo sapiens)", "PARAMETER": "AC50", "OBSERVED": "> 10 µM"}
{"COMPOUND_STRUCTURE": "Cn1c(=O)c2[nH]cnc2n(C)c1=O", "EXPERIMENTAL_SYSTEM": "Vasopressin V1a receptor (Homo sapiens)", "PARAMETER": "AC50", "OBSERVED": "> 30 µM"}
{"COMPOUND_STRUCTURE": "COc1cccc2c1C(=O)c1c(O)c3c(c(O)c1C2=O)C[C@@](O)(C(C)=O)C[C@@H]3O[C@H]1C[C@H](N)[C@H](O)[C@H](C)O1", "EXPERIMENTAL_SYSTEM": "Vasopressin V1a receptor (Homo sapiens)", "PARAMETER": "AC50", "OBSERVED": "3.6 µM"}
{"COMPOUND_STRUCTURE": "CN(C)c1cc(NC(=O)CNC(C)(C)C)c(O)c2c1C[C@H]1C[C@H]3[C@H](N(C)C)C(O)=C(C(N)=O)C(=O)[C@@]3(O)C(O)=C1C2=O", "EXPERIMENTAL_SYSTEM": "Vasopressin V1a receptor (Homo sapiens)", "PARAMETER": "AC50", "OBSERVED": "> 30 µM"}
